target: Multidrug resistance-associated protein 1 (Homo sapiens, UniProt P33527); assay: Inhibition of MRP1 in human H69AR cells assessed as daunorubicin accumulation preincubated for 15 mins measured after 180 mins by flow cytometry; type: cell-based
Sequence (P33527 whole entry): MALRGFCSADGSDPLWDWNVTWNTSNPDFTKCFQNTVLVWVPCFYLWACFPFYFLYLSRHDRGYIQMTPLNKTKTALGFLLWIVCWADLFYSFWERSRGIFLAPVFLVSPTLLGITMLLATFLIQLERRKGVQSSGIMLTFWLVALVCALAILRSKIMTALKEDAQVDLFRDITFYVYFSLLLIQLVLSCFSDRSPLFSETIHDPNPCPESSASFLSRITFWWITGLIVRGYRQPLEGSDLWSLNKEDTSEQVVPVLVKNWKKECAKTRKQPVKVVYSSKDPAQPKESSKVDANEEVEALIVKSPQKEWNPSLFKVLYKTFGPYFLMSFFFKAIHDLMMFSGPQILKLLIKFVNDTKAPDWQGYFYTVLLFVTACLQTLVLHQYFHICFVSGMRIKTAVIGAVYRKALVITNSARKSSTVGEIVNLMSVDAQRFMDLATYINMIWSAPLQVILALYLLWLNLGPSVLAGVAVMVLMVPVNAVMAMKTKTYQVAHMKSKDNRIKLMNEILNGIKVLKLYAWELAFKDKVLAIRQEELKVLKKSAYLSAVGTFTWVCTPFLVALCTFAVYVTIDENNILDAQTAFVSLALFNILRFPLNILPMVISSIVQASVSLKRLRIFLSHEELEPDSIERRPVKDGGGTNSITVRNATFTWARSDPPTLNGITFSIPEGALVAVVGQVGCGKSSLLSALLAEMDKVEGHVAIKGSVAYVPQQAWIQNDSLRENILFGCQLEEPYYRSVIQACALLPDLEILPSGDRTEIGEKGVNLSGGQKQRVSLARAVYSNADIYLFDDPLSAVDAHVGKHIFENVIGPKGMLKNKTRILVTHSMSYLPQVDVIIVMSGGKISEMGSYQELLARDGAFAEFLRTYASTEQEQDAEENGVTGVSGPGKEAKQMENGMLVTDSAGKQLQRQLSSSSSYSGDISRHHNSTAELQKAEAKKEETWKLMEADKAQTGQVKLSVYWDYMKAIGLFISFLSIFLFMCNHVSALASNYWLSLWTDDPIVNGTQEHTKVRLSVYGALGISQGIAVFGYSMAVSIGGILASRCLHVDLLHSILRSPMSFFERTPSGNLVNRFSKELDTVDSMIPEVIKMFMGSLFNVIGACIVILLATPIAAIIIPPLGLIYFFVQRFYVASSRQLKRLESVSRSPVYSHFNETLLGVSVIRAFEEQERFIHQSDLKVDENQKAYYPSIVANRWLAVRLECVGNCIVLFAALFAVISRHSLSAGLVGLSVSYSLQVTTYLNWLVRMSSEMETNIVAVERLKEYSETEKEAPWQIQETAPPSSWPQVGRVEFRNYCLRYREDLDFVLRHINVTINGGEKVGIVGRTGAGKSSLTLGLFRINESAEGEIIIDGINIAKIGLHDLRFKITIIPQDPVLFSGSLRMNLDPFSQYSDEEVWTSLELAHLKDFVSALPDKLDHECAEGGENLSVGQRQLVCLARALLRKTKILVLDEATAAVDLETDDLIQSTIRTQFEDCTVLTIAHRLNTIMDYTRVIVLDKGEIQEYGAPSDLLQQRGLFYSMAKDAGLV
property-label: IC50 (nM)
Give bare numbers, in nM.

Example entries and their recorded answers appear below.
{"columns": ["molecule", "output-unit", "IC50"],
 "data": [
  ["N#Cc1c2n(c3c(N4CCN(CCc5ccccc5)CC4)ncnc13)CCCC2", "nM", 197],
  ["N#Cc1c2n(c3c(NCCc4ccccc4)ncnc13)CCCC2", "nM", 4980],
  ["Cn1cc(C#N)c2ncnc(N3CCN(CCc4ccccc4)CC3)c21", "nM", 700]
]}

Provide reported IC50 for each item, in the same order as listed.
1. N#Cc1cn(CCc2ccccc2)c2c(N3CCN(CCc4ccccc4)CC3)ncnc12
2. N#Cc1c2n(c3c(Nc4ccccc4)ncnc13)CCCC2
3. N#Cc1cn(CCc2ccccc2)c2c(N3CCN(Cc4ccccc4)CC3)ncnc12

// result
[1120, 9410, 983]

Provide reported IC50 for each item, in the same order as listed.
1. N#Cc1cn(Cc2ccccc2)c2c(N3CCN(CCc4ccccc4)CC3)ncnc12
2. N#Cc1c2n(c3c(N4CCN(Cc5ccccc5)CC4)ncnc13)CCCC2
3. N#Cc1c2n(c3c(NCCCc4ccccc4)ncnc13)CCCC2

// result
1: 623; 2: 636; 3: 2840
